experiment: Intrinsic clearance in CD1 mouse liver microsomes at 0.2 uM up to 45 mins in presence of NADPH by LC-MS/MS analysis; format: ADME, Microsome; conditions: read-out: CLH
property: CLint scaled at 0.2 µM (mL/min/kg)

{"columns": ["compound_structure", "unit_annotation", "sign", "endpoint_value"],
 "data": [
  ["COc1ncc(N2CCc3ncnc(-c4ccnc(NC5CCN(S(C)(=O)=O)CC5)c4)c3C2)cc1C", "mL/min/kg", ">", 1000],
  ["CCN1CCC(Nc2cc(-c3ncnc4c3CN(c3cnc(OC)c(C)c3)CC4)ccn2)CC1", "mL/min/kg", "=", 160],
  ["COCC(=O)N1CCC(Nc2cc(-c3ncnc4c3CN(c3cnc(OC)c(C)c3)CC4)ccn2)CC1", "mL/min/kg", "=", 580],
  ["COc1ncc(N2CCc3ncnc(-c4ccnc(NC5CCN(C)CC5)c4)c3C2)cc1C", "mL/min/kg", "=", 81]
]}
